# Read-out: Thrombomodulin, THBD (gene 7056)
# Test: BSK_3C_Thrombomodulin: BioMAP Diversity Plus: 3C Assay for Thrombomodulin Biomarker Activity (AID 2283029)
# Study conditions: primary human endothelial cells (HUVEC); actives raise or lower the signal
Active and inactive are the calls of the source. How the source made its calls: active means hit-call score of the fitted dose curve at least 0.9, where 1 is the maximum; inactive means score below 0.9.
Measure: outcome

A selection of reference data follows.
>>> reported_measurement("CCOP(=S)(OCC)SCn1c(=O)oc2cc(Cl)ccc21")
"inactive"
>>> reported_measurement("Cc1ccc(-c2c(Cl)nc(C#N)n2S(=O)(=O)N(C)C)cc1")
"inactive"
>>> reported_measurement("COP(N)(=O)SC (stereo not given)")
"inactive"
>>> reported_measurement("CCCCNC(=O)OCC#CI")
"inactive"

Item: C=CCC1=C(C)C(OC(=O)C2C(C=C(C)C)C2(C)C)CC1=O (stereo not given) | outcome: inactive

Please fill in: outcome reported for Fc1ccc(Oc2ccnc3cc(Cl)cc(Cl)c23)cc1 = inactive

According to the records, this compound OC(c1ccc(Cl)cc1)(c1cncnc1)c1ccccc1Cl (stereo not given) displays outcome of inactive

CCCN(CCC)c1c([N+](=O)[O-])cc(S(N)(=O)=O)cc1[N+](=O)[O-] yielded outcome of inactive

Notebook: CCCCC(CC)COC(=O)c1ccccc1C(=O)OCC(CC)CCCC (stereo not given) , outcome read as inactive

Entry C=CC1(C)OC(=O)N(c2cc(Cl)cc(Cl)c2)C1=O (stereo not given) , outcome reported as inactive

FYI, the data here is from PubChem BioAssay (EPA / NIEHS).
